TEST_SYSTEM: S. pyogenes SKKanGAS, kanamycin survival, BacTiterGlo, 6 h
EXPERIMENT: S. pyogenes SKKanGAS kanamycin growth inhibitors – SKKanGAS strain, luminescence, dose confirmation, streptokinase promoter inhibitor project, dose response (AID 1902);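 also: lower survival reflects blocked streptokinase promoter driving kanamycin resistance gene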
Activity calls are given as the source filed them.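 The calls were made as follows: active = EC50 no more than a set limit of log units above the highest dose; inactive = the rest.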
Pick one: t (active), f (inactive)

Example cases with answers are listed next.
# COMPOUND, ANSWER_LABEL
rows = [
    ("COc1ccc(-c2csc(Nc3ccc(S(=O)(=O)Nc4cc(C)on4)cc3)n2)cc1C", "t"),
    ("CN(CC1CCCO1)S(=O)(=O)c1ccc(C(=O)Nc2ccc(F)cc2)cc1 (configuration not stated)", "f"),
    ("Cc1ccc(NS(=O)(=O)c2cc([N+](=O)[O-])ccc2NNC(=S)Nc2cccc(Cl)c2)c(C)c1", "t"),
    ("C=C(C)COc1ccc(-c2n[nH]c(C)c2-c2ccccc2)c(O)c1", "t"),
    ("CCn1nc(NC(=O)c2ccncc2)c2cc3cc(C)ccc3nc21", "t"),
    ("CC(C)c1ccc(N2C(=O)/C(=C/N(C)C)SC2=S)cc1", "t"),
    ("CC1=C(C(=O)O)N2C(=O)C(NC(=O)Cc3ccccc3)C2SC1 (configuration not stated)", "t"),
    ("O=C(Nc1ccc([N+](=O)[O-])cc1)Nc1nc(-c2ccc(Cl)s2)cs1", "t"),
]

Entry `COc1ccc(C(=O)c2c(C(F)(F)F)oc3c2C(=O)c2ccccc2C3=O)cc1` : call = ?
t

How was CC(C)c1ccc2c(c1)C1(NN=C(c3ccccc3)S1)C(=O)N2 (configuration not stated) classified in this test?
t

Name the outcome recorded for Cc1nn(-c2ccccc2)c2c1C(c1ccc(O)c(O)c1)N1C(=N2)C(Nc2ccccc2)=Nc2ccccc21 (configuration not stated) in the assay.
t

Please share the test call associated with `CN1C(=O)/C(=C/c2ccccc2F)Sc2ccc(C(=O)N3CCCC3)cc21` .
t

Dear colleague, could you share the recorded outcome for `CC1(C)CN=C(Nc2nc3ccccc3s2)S1` when you have a moment?
t

Each compound tested received a call. Report the one for `COc1ccc(C(=O)NNC(=S)NC(=O)c2ccc(F)cc2)cc1Br` .
t

What did the test return for `C=C(C)COc1ccc(-c2nc(N)ncc2-c2ccc(Cl)cc2)c(O)c1` ?
t

====

TEST_SYSTEM: S. pyogenes SKKanGAS, kanamycin survival, BacTiterGlo, 6 h
EXPERIMENT: S. pyogenes SKKanGAS kanamycin growth inhibitors – SKKanGAS strain, luminescence, dose confirmation, streptokinase promoter inhibitor project, dose response (AID 1902)
The source made the active and inactive calls.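 The calls were made as follows: active = EC50 no more than a set limit of log units above the highest dose; inactive = the rest.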
# output must be one of active, inactive

Observe how each entry below is paired with its result.
# COMPOUND, ANSWER_LABEL
records = [
    ("CCCCn1c(CCCNC(=O)c2ccco2)nc2ccccc21", "inactive"),
    ("COc1ccc(C(=O)Nc2cccc(/C=C(\\CCC(=O)O)c3nc4ccccc4s3)c2)cc1", "active"),
    ("CC(C)N1CCc2c(sc(NC(=O)CCS(=O)(=O)c3ccccc3)c2C#N)C1", "inactive"),
    ("Cc1cccc(CSc2ncnc3c2cnn3Cc2ccccc2)c1", "active"),
    ("Cc1ccc(C(=O)NNC(=S)NC(=O)c2ccccc2)cc1", "active"),
    ("O=C(c1cc(-c2ccc(Br)cc2)nc2ccccc12)N1CCN(c2ccccc2O)CC1", "active"),
]

Look up the recorded call for `O=C(Cn1nc2ccccc2n1)N/N=C/c1cc([N+](=O)[O-])ccc1O` in this test.
active

What was the test verdict on `COc1ccc(N2CCN(C(=S)NC(=O)c3cccs3)CC2)c([N+](=O)[O-])c1` ?
active

====

TEST_SYSTEM: S. pyogenes SKKanGAS, kanamycin survival, BacTiterGlo, 6 h
EXPERIMENT: S. pyogenes SKKanGAS kanamycin growth inhibitors – SKKanGAS strain, luminescence, dose confirmation, streptokinase promoter inhibitor project, dose response (AID 1902);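 also: lower survival reflects blocked streptokinase promoter driving kanamycin resistance gene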
Calls of active or inactive are those of the source.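 How the source made its calls: active means EC50 no more than a set limit of log units above the highest dose; inactive means the rest.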
Kindly supply the reported EC50 values for the records listed here.

Example results:
# COMPOUND, TEST_SYSTEM, MEASUREMENT_TYPE, READOUT_VALUE
measured = [
    ("COc1ccc(-c2cc(C(=O)NNC(=S)NC(=O)c3c(-c4ccccc4)noc3C)[nH]n2)cc1", "S. pyogenes SKKanGAS, kanamycin survival, BacTiterGlo, 6 h", "EC50", "0.2 µM"),
    ("CC1(C)CC(=O)C(C2C3=C(CC(C)(C)CC3=O)Oc3c(Br)cc(Br)cc32)=C(O)C1 (stereo unspecified)", "S. pyogenes SKKanGAS, kanamycin survival, BacTiterGlo, 6 h", "EC50", "4.06 µM"),
    ("Cc1ccc2nc(N3C(=O)CNC3=S)sc2c1", "S. pyogenes SKKanGAS, kanamycin survival, BacTiterGlo, 6 h", "EC50", "4.32 µM"),
    ("Cc1ccccc1C(=O)Nc1nc(=S)ss1", "S. pyogenes SKKanGAS, kanamycin survival, BacTiterGlo, 6 h", "EC50", "2.46 µM"),
    ("COc1ccc(/C=C/C(=O)NC(=S)NNC(=O)c2cc(OC)c(OC)c(OC)c2)cc1", "S. pyogenes SKKanGAS, kanamycin survival, BacTiterGlo, 6 h", "EC50", "1.08 µM"),
    ("CCc1nnc(NC(=O)c2ccc(S(=O)(=O)N(C)c3ccccc3)cc2)o1", "S. pyogenes SKKanGAS, kanamycin survival, BacTiterGlo, 6 h", "EC50", "4.71 µM"),
    ("O=C(Nc1ccc(OC(F)F)cc1)Nc1cccc(C(F)(F)F)c1", "S. pyogenes SKKanGAS, kanamycin survival, BacTiterGlo, 6 h", "EC50", "6.7 µM"),
    ("Cc1ccc2nc(-c3ccc(N)cc3)sc2c1", "S. pyogenes SKKanGAS, kanamycin survival, BacTiterGlo, 6 h", "EC50", "> 15 µM (inactive)"),
    ("CCOC(=O)c1cnn(-c2nc(-c3cccc(F)c3)cs2)c1C(F)(F)F", "S. pyogenes SKKanGAS, kanamycin survival, BacTiterGlo, 6 h", "EC50", "12.3 µM"),
    ("Nc1nc(Nc2ccccc2)nc(NC2CCCCC2)c1[N+](=O)[O-]", "S. pyogenes SKKanGAS, kanamycin survival, BacTiterGlo, 6 h", "EC50", "5.57 µM"),
]

Then there is this compound:
Determine its reported EC50: `C/C(=N\NC(=O)c1cc(Br)ccc1O)c1ccccn1`
< 0.06 µM

====

TEST_SYSTEM: S. pyogenes SKKanGAS, kanamycin survival, BacTiterGlo, 6 h
EXPERIMENT: S. pyogenes SKKanGAS kanamycin growth inhibitors – SKKanGAS strain, luminescence, dose confirmation, streptokinase promoter inhibitor project, dose response (AID 1902);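 also: lower survival reflects blocked streptokinase promoter driving kanamycin resistance gene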
Calls of active or inactive are those of the source.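 Rule for the calls: active = EC50 no more than a set limit of log units above the highest dose; inactive = the rest.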
// allowed return values: active, inactive

# COMPOUND, ANSWER_LABEL
records = [
    ("CCCCC(=O)NC(=S)NNC(=O)CCc1ccccc1", "active"),
    ("O=C(NC(=S)N1CCN(C(c2ccccc2)c2ccccc2)CC1)c1ccc(S(=O)(=O)N2CCOCC2)cc1", "active"),
    ("Cc1ccc(OCCSc2nc(NC(C)C)nc(NC(C)C)n2)cc1", "active"),
]

Check the results log: what was the call for CC(Oc1ccccc1)C(=O)NC1C(=O)N2C1SC(C)(C)C2C(=O)O (stereo not given) ?
active

Please state the recorded outcome for this compound: C=C(C)[C@@H]1CCC2(C(=O)O)CC[C@]3(C)[C@H](CC[C@@H]4[C@@]5(C)CCC(=O)C(C)(C)[C@@H]5CC[C@]43C)[C@@H]12 (stereo not given in full)
active

For Cc1cccc2sc(NNC(=O)c3ccc(S(=O)(=O)N4CC(C)CC(C)C4)cc3)nc12 (stereo not given) , which call appears in the assay record?
active

Returns: the outcome recorded for `CCN(CC)C(=O)c1cc(-c2ccc(Br)cc2)on1` in this assay.
inactive

How was `COc1ccc(OCCn2c(NC(=O)c3ccco3)nc3ccccc32)cc1` classified in this test?
active

Per the assay record, what outcome was assigned to `Clc1ccc(SCc2cc(Cl)nc(-c3ccccc3)n2)cc1` ?
inactive

# lookup: test call for `N#Cc1ccc(C(=O)Nc2nc(SCc3ccc(Cl)cc3)n[nH]2)cc1`
active

State the result this test recorded for CCC1=NN(C(=O)c2ccccc2O)C(O)(c2ccccc2)C1 (stereo not given) .
active

I'd appreciate the recorded outcome for CC(C)(C)C1CCC2(CC1)C(C#N)=C(SCC(=O)Nc1ccccc1)NC(=O)C2C#N (stereo not given) from this test.
active

====

TEST_SYSTEM: S. pyogenes SKKanGAS, kanamycin survival, BacTiterGlo, 6 h
EXPERIMENT: S. pyogenes SKKanGAS kanamycin growth inhibitors – SKKanGAS strain, luminescence, dose confirmation, streptokinase promoter inhibitor project, dose response (AID 1902);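 also: lower survival reflects blocked streptokinase promoter driving kanamycin resistance gene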
Activity calls are given as the source filed them.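 Rule for the calls: active = EC50 no more than a set limit of log units above the highest dose; inactive = the rest.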
Use one of these outcomes when replying: Yes for active, No for inactive

# MOLECULE, ANSWER_LABEL
rows = [
    ("CC(=O)N1CCc2cc(S(=O)(=O)N3CCc4ccccc43)ccc21", "No"),
]

Can you look up the reported call for `O=C(c1cc(-c2ccccc2)nc2ccccc12)N1CCN(c2ccccc2O)CC1` for me?
Yes

Per the assay record, what outcome was assigned to `Nc1nonc1-n1nnc(C(=O)N/N=C/c2cc(Cl)ccc2O)c1CN1CCCCCC1` ?
Yes

Dear colleague, could you share the recorded outcome for `CCCn1c(=O)c(C(=O)Nc2ncccc2C)c(O)c2ccccc21` when you have a moment?
Yes

Record lookup: outcome of this test for `CSCc1nnc(NC(=O)c2ccc(S(=O)(=O)N(CC(C)C)CC(C)C)cc2)o1` ?
Yes

Tell me the recorded outcome of this test for `CCOC(=O)c1cc(-c2cccs2)nc2c1c(C)nn2-c1ccccn1` .
Yes

Dear colleague, could you share the recorded outcome for Cc1ccc(C(=O)C2=C(O)C(=O)N(Cc3ccco3)C2c2cccc(Br)c2)o1 (stereo not given) when you have a moment?
Yes

In this assay, the call recorded for `Cc1ccc(-c2nn(-c3ccccc3)cc2/C=N/n2c(-c3cccs3)n[nH]c2=S)cc1` was what?
Yes

What was the test verdict on CNC(CC(C)C)C(=O)NC1C(=O)NC(CC(N)=O)C(=O)NC2C(=O)NC3C(=O)NC(C(=O)NC(C(=O)O)c4cc(O)cc(O)c4-c4cc3ccc4O)C(O)c3ccc(c(Cl)c3)Oc3cc2cc(c3OC2OC(CO)C(O)C(O)C2OC2CC(C)(N)C(O)C(C)O2)Oc2ccc(cc2Cl)C1O (stereo not given) ?
Yes
